# IC50 per entry for Telomerase reverse transcriptase (Homo sapiens, UniProt O14746)

Could you share which IC50 value was measured for `CC1(C)CC2CC(C)(CN2CCC(=O)Nc2ccc3c(c2)C(=O)c2ccc(NC(=O)CCN4CC5(C)CC4CC(C)(C)C5)cc2C3=O)C1` ?
> 50 µM

Please give the result for `O=C(CCN1CCCCCCC1)Nc1ccc2c(c1)C(=O)c1ccc(NC(=O)CCN3CCCCCCC3)cc1C2=O` too.
> 50 µM
